System: HT-1080
PROTOCOL: Antiproliferative activity against human HT1080 cells after 72 hrs by sulforhodamine-B assay
Format: functional, cell-based
ASSAY_SETUP: HT-1080, 72 h
Kindly supply the reported IC50 values for the records listed here.

Record COc1cc(C(=O)NC(=S)Nc2ccc(C)c(NC(=O)c3ccc(-c4ccc(F)cc4)cc3)c2)cc(OC)c1OC ; system HT-1080; IC50 = 27 µM

Record COc1cc(C(=O)NC(=N)Nc2ccc(C)c(NC(=O)c3ccc(-c4ccc(F)cc4)cc3)c2)cc(OC)c1OC.Cl ; system HT-1080; IC50 = 20 µM

Record CS(=O)(=O)c1ccc(C(=O)Nc2ccc(Cl)c(-c3ccccn3)c2)c(Cl)c1 ; system HT-1080; IC50 = > 100 µM

Record COc1cc(C(=O)NC(=N)Nc2ccc(C)c(NC(=O)c3ccc(CCc4ccccc4)cc3)c2)cc(OC)c1OC.Cl ; system HT-1080; IC50 = 2 µM

Record COc1cc(C(=O)NC(=N)Nc2ccc(C)c(NC(=O)c3ccc(-c4ccccc4)cc3)c2)cc(OC)c1OC.Cl ; system HT-1080; IC50 = 29 µM

// provenance: ChEMBL document CHEMBL4270604
